Each recorded value in this set is attributed to PubChem BioAssay (NCI).

# Test system: U251 CNS
# assay_comment: NCI-60 one-dose screen, 48 h
# conditions: 10 µM unless noted
# Method: Growth inhibition of the U251 human tumor cell line is measured as a screen for anti-cancer activity. Cells are grown in 96 well plates and exposed to the test compound for 48 hours. Compounds are tested at a single concentration, which is 10^-5 M for most compounds. The reported endpoint is percent growth (GI% or GIPRCNT), where numbers from 0 - 100% represent growth inhibition, and numbers from -100% - 0 represent cell death. For example, a value of 40 represents 60% growth inhibition. […]
Compounds without any hit were thinned out: in the full panel of roughly 83,000, 20% have a hit. The source made the active and inactive calls. How the source made its calls: active means growth percent below 10; inactive means the rest.
Labels: Y (active), N (inactive)

>>> assigned_category("Cc1ccc(-c2cc(-c3ccccc3)n(-c3ccccc3)n2)cc1")
"N"
>>> assigned_category("COc1cnc2c(c1)C(=O)c1c-2n(CCCN2CCNCC2)c(=O)c2cc(F)ccc12")
"Y"
>>> assigned_category("N#Cc1ccc(-c2csc(Nc3ccc4nc5n(c(=O)c4c3)CCC5)n2)cc1")
"N"
>>> assigned_category("COc1cc(/C=N/OC(=O)Nc2ccccc2)cc(OC)c1OC")
"N"
>>> assigned_category("COc1cc(/C=C/C(=O)c2c(C)n([O-])c3ccc(Cl)cc3[n+]2=O)cc(OC)c1OC")
"N"
>>> assigned_category("CCSc1nc(Nc2ccc(S(=O)(=O)Nc3ccon3)cc2)c(C#N)c(-c2cccc(Br)c2)n1")
"N"
>>> assigned_category("CSc1nc(-c2ccc(O)cc2O)c2c(=O)[nH]c(Nc3ccc(S(=O)(=O)Nc4nc(C)cc(C)n4)cc3)nc2n1")
"N"
>>> assigned_category("OC(c1ccccc1)C(NCc1ccccc1)c1ccccc1 (stereo unspecified)")
"N"
>>> assigned_category("Nc1nc(Nc2ccccc2SSc2ccccc2Nc2nc(N)nc(C(Cl)(Cl)Cl)n2)nc(C(Cl)(Cl)Cl)n1")
"N"
>>> assigned_category("CCOC(=O)C1C(=O)NC(C(=O)OCC)(C(=O)OCC)C1CC (stereo unspecified)")
"N"
>>> assigned_category("FCc1ncc(-c2ccc(C(F)(F)F)cc2)c(NC2CCCCCC2)n1")
"Y"
>>> assigned_category("CCN(CC)CCSc1ncnc2c1cnn2-c1ccc(S(N)(=O)=O)cc1")
"N"
>>> assigned_category("O=CN1N=C(c2ccc(Cl)cc2)CC1c1cccc(Nc2ccnc3cc(Cl)ccc23)c1 (stereo unspecified)")
"N"
>>> assigned_category("COc1cc2c(cc1OC)C(CC1(O)CCCCC1)N(S(=O)(=O)c1ccc(C)cc1)CC2 (stereo unspecified)")
"N"
>>> assigned_category("O=C(c1ccccc1)c1ccc(Oc2ccc([N+](=O)[O-])cc2[N+](=O)[O-])cc1")
"N"
>>> assigned_category("Cc1cc(C)c2c(N)c3cccc(C)c3nc2n1")
"N"

====

# Test system: RXF 393 renal
# assay_comment: NCI-60 one-dose screen, 48 h (100 = growth as untreated, 0 = no growth, -100 = all killed)
# conditions: 10 µM unless noted
The panel holds about 83,000 compounds, 20% with a hit somewhere; the sample as a whole holds those more often.
Parameter: growth. Scope: all listed entries.
value_type: growth (%)

>>> measured_result("OC(c1cc(-c2cccc(Cl)c2)nc2ccccc12)C1CCCCN1 (configuration not stated)")
-46.4
>>> measured_result("C[C@]12CCC(=O)C=C1CC[C@H]1[C@@H]3C[C@@H](O)[C@](O)(C(=O)CO)[C@@]3(C)C[C@H](O)[C@@]12F")
137
>>> measured_result("COc1cccc(/C=C2\\Cc3ccccc3C2=O)c1")
103
>>> measured_result("CN(C)c1ccc(-n2nc3ccccc3n2)cc1")
98.9
>>> measured_result("O=C1c2cc3c(cc2-c2c1c1ccc(Cl)cc1c(=O)n2CCCNCCO)OCO3")
-78.6
>>> measured_result("CC(=O)Nc1c(Cl)cc2c(c1Cl)Cc1cc([N+](=O)[O-])ccc1-2")
104
>>> measured_result("CCCCCCCCCCCCCCCCNC(=O)Nc1ccc2ccccc2c1")
104
>>> measured_result("COc1ccc(C2CC(c3ccc(Nc4ccnc5cc(Cl)ccc45)cc3)=NN2C(C)=O)cc1 (configuration not stated)")
73.1
>>> measured_result("NC(=N\\N=C/Cc1ccccc1)/C(N)=N\\N=C\\Cc1ccccc1")
121
>>> measured_result("O=C(Nc1ccccc1S)c1ccccc1")
125
>>> measured_result("COc1cc(/C=C2\\CN(S(=O)(=O)c3ccc(C)cc3)C/C(=C\\c3cc(CN4CCOCC4)c(O)c(OC)c3)C2=O)cc(CN2CCOCC2)c1O")
-87.3
>>> measured_result("O=C1CSC(c2ccccc2O)N1c1nnc(Cn2ccnc2)o1 (configuration not stated)")
74.7
